For each of the compounds below, state its EC90.
Tested on: HCV replicon cells
Assay: Cell-based HCV replicon assay (replicon RNA level by real time PCR, Taqman)
Conditions: Hepatitis C virus, 72 h, HCV replicon cells, replicon RNA level by real time PCR, harvested day 3; read-out: EC90 (μM) range

CCNC(=O)NC[C@H]1C[C@@H](Nc2nc(NCC(F)(F)F)nc(C)c2-c2nc3ccccc3s2)[C@H](O)[C@@H]1O	0.5 to 5 µM
CC(=O)NC[C@H]1C[C@@H](Nc2nc(NCC(F)(F)F)nc(C)c2-c2nc3ccccc3s2)[C@H](O)[C@@H]1O	0.5 to 5 µM
Cc1nc(NCC(F)(F)F)nc(N[C@@H]2C[C@H](CS(C)(=O)=O)[C@@H](O)[C@H]2O)c1-c1nc2ccccc2s1	< 0.5 µM
Cc1nc(NCC(C)(C)C)nc(N[C@H]2C[C@@H](CO)[C@H](O)[C@@H]2O)c1-c1nc2ccccc2s1	> 5 µM
Cc1nc(N[C@H](C)C2CC2)nc(N[C@@H]2CC[C@@H](O)[C@@]2(C)O)c1-c1nc2cnccc2s1	< 0.5 µM

Field: next compound
Query :: State the recorded EC90 for this entry: Cc1nc(N[C@H](C)c2ccc(-n3cccn3)cc2)nc(N[C@@H]2C[C@H](CO)[C@@H](O)[C@H]2O)c1-c1nc2ccccc2s1
Result :: < 0.5 µM

Reference source for all entries: patent US8697694B2
